Reference for the values: patent US20210363269A1

For each entry below, report its pKd value.
Target: T1, C57BL/6 mouse SIRP-α D1 domain (mouse (C57BL/6 strain), UniProt P97797 32-148)
T1 sequence: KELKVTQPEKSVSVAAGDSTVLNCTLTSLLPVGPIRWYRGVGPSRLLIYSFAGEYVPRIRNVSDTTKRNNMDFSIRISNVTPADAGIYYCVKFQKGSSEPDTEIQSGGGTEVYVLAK
Test: SPR, ProteOn, antibody on chip
Give bare numbers, as −log10 of the molar value.

Some entries whose results are on file:
- AB27c (antibody, mouse IgG2a, V domains shown, Full-length mouse IgG2a) VH: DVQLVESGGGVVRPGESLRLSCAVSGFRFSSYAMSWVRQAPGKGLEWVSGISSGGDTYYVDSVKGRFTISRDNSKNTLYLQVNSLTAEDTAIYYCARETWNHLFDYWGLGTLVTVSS VL: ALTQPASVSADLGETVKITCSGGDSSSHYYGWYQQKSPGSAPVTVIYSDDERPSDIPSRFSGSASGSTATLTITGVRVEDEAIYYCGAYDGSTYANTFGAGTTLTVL: 8.02
- AB21c (antibody, mouse IgG2a, V domains shown, Full-length mouse IgG2a) VH: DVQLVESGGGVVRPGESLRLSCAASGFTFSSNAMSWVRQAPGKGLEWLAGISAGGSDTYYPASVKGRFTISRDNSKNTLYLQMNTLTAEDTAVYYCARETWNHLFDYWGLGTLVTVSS VL: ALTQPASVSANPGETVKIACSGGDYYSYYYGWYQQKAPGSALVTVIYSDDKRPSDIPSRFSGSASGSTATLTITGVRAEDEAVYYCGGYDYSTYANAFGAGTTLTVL: 9.06
- AB25c (antibody, mouse IgG2a, V domains shown, Full-length mouse IgG2a) VH: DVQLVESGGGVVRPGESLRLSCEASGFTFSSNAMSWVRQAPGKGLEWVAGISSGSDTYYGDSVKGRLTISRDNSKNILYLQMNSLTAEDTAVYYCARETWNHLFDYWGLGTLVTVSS VL: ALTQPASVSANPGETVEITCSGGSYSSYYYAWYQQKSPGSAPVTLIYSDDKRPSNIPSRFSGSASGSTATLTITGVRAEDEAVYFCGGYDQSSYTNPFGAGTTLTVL: 8.55
- AB66c (antibody, mouse IgG2a, V domains shown, Full-length mouse IgG2a) VH: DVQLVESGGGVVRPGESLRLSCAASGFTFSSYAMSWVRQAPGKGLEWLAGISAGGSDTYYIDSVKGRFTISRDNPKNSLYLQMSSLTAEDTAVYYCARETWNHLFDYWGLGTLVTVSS VL: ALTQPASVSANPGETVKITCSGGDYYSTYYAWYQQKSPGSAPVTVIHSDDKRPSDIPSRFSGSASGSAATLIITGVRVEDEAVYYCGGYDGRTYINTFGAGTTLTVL: 8.24

Now, please, on to the next binder.
Which pKd is listed for AB3c (antibody, mouse IgG2a, V domains shown, Full-length mouse IgG2a) VH: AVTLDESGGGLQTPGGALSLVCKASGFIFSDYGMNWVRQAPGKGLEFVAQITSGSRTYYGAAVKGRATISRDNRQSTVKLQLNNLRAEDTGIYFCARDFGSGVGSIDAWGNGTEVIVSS VL: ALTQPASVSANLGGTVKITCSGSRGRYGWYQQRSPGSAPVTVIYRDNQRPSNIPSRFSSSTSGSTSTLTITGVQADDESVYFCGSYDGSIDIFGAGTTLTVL ? 7.82
